# Tested on: A498 renal
# Measurement Protocol: NCI-60 one-dose screen, 48 h
# Test Parameters: 10 µM
About 83,000 compounds went through this panel and 20% of them were active in at least one assay; those are over-represented in the sample as a whole. The source made the active and inactive calls. The calls were made as follows: active = growth percent below 10; inactive = the rest.
Write down the outcome that applies. Available outcomes: 1 (yes) = active, 0 (no) = inactive

Request: What was the test verdict on `COc1ccc(C(=O)CC(CC(=O)c2ccc(OC)cc2)c2c(C)nn(-c3ccccc3)c2Cl)cc1` ?
Response: 0 (no)

Request: Dear colleague, could you share the recorded outcome for `COc1ccc2c(c1)C(=O)/C(=C/c1ccc([N+](=O)[O-])o1)O2` when you have a moment?
Response: 1 (yes)

Request: Record lookup: outcome of this test for `COc1cc(-c2csc(NC(=O)Nc3cc(C(F)(F)F)cc(C(F)(F)F)c3)n2)cc(OC)c1OC` ?
Response: 0 (no)
